Target: human MASP2 (Homo sapiens (Human))
Sequence (O00187 other isoform, or with tags, fused parts or gaps): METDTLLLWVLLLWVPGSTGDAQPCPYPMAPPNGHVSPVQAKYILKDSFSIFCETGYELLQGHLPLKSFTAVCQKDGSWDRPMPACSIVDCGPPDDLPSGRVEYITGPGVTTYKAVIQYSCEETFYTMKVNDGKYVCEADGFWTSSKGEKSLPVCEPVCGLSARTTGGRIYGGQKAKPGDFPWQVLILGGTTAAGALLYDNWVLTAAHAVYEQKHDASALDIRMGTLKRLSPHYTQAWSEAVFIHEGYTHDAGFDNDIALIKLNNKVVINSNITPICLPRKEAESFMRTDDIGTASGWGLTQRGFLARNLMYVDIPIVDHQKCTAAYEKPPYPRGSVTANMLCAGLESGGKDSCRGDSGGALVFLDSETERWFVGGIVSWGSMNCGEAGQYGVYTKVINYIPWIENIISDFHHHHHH
Test: Biochemical human MASP2 assay (FRET substrate)
Conditions: Average IC50; recombinant human MASP2; read-out: human MASP2 IC50
Where a SMILES comes first, the peptide text is derived from it. Bridges are numbered along the chain shown (N, C = ends). [ ]: non-standard residue; d: D form. ξ: configuration not given here. Oic = O=C(O)[C@@H]1C[C@@H]2CCCC[C@@H]2N1; tBuAla = CC(C)(C)C[C@H](N)C(=O)O; Pen = CC(C)(S)[C@H](N)C(=O)O; ξIle = CC[C@H](C)C(N)C(=O)O; NMeC = CN[C@@H](CS)C(=O)O; Orn = NCCC[C@H](N)C(=O)O; Ahx = NCCCCCC(=O)O; Sar = CNCC(=O)O
measured-quantity: IC50 (nM)
Hi! Could you send only the number? It should be in nM, unit omitted.

Per the record, CC[C@H](C)[C@@H]1NC(=O)[C@H](C)NC(=O)CN(C)C(=O)CCCCCNC(=O)CC[C@@H](C(N)=O)NC(=O)[C@@H]2CCCN2C(=O)[C@H]([C@@H](C)CC)NC(=O)[C@H]2NC(=O)[C@H]([C@@H](C)CC)NC(=O)[C@@H]3C[C@@H]4CCCC[C@@H]4N3C(=O)[C@@H]3CCCN3C(=O)[C@H](CC(C)C)NC(=O)[C@H](CO)NC(=O)[C@H](CCCNC(=N)N)NC(=O)[C@H](CO)NC(=O)[C@H](CSSC2(C)C)NC1=O [Example 77] ([Ahx][Sar]AICSRSLP[Oic]I[Pen]IPE-NH2; disulfide 5-13; lactam N-16) has IC50 of 210

Lookup result for CC[C@H](C)C1NC(=O)[C@@H]2CSSC[C@H](NC(=O)[C@H]([C@@H](C)CC)NC(=O)[C@H](C)NC(=O)[C@@H](N)CCCNC(=O)C[C@@H](C(N)=O)NC(=O)[C@@H]3CCCN3C1=O)C(=O)N[C@@H](CO)C(=O)N[C@@H](CCCNC(=N)N)C(=O)N[C@@H](CO)C(=O)N[C@@H](CC(C)(C)C)C(=O)N1CCC[C@H]1C(=O)N1CCC[C@H]1C(=O)N[C@@H]([C@@H](C)CC)C(=O)N2C (some centres unmarked) [Example 44] (H-[Orn]AICSRS[tBuAla]PPI[NMeC][ξIle]PD-NH2; lactam 1-15; disulfide 4-12) ; measured IC50: 230

* * *

Target: human MASP2 (Homo sapiens (Human))
Assay: Biochemical human MASP2 assay (FRET substrate)
Details: Average IC50; recombinant human MASP2; read-out: human MASP2 IC50
Procedure: The MASP1 or MASP2 expression vectors were transfected into the HEK293 (ATCC No. CRL-1573) cell line using Lipofectamine LTX® Reagent (Thermo-Fischer), as described by the manufacturer. […] The increase of fluorescence intensity was measured in appropriate fluorescence plate reader (e.g. TECAN Ultra) using excitation wavelength of 340 nm and emission wavelength of 490 nm. IC50 values were calculated from percentage of inhibition of human MASP2 activity as a function of test compound concentration.
Where a SMILES comes first, the peptide text is derived from it. Bridges are numbered along the chain shown (N, C = ends). [ ]: non-standard residue; d: D form. Oic = O=C(O)[C@@H]1C[C@@H]2CCCC[C@@H]2N1; tBuAla = CC(C)(C)C[C@H](N)C(=O)O; Pen = CC(C)(S)[C@H](N)C(=O)O; Dab = NCC[C@H](N)C(=O)O; Ahx = NCCCCCC(=O)O; Sar = CNCC(=O)O
measured-quantity: pIC50
# reply with the number alone; pIC50 is -log10 of concentration in mol/L

molecule: CC[C@H](C)[C@@H]1NC(=O)CNC(=O)CN(C)C(=O)CCCCCNC(=O)CC[C@@H](C(N)=O)NC(=O)[C@@H]2CCCN2C(=O)[C@H]([C@@H](C)CC)NC(=O)[C@H]2NC(=O)[C@H]([C@@H](C)CC)NC(=O)[C@@H]3C[C@@H]4CCCC[C@@H]4N3C(=O)[C@@H]3CCCN3C(=O)[C@H](CC(C)C)NC(=O)[C@H](CO)NC(=O)[C@H](CCCNC(=N)N)NC(=O)[C@H](CO)NC(=O)[C@H](CSSC2(C)C)NC1=O [Example 76] ([Ahx][Sar]GICSRSLP[Oic]I[Pen]IPE-NH2; disulfide 5-13; lactam N-16)
endpoint-value: 6.74

From here, focus on the item given below.
Reported pIC50 of CC[C@H](C)[C@@H]1NC(=O)[C@H](CCN)NC(=O)[C@@H]2CCCN2C(=O)[C@H]([C@@H](C)CC)NC(=O)[C@H]2NC(=O)[C@H]([C@@H](C)CC)NC(=O)[C@@H]3CCCN3C(=O)[C@@H]3CCCN3C(=O)[C@H](CC(C)(C)C)NC(=O)[C@H](CO)NC(=O)[C@H](CCCNC(=N)N)NC(=O)[C@H](CO)NC(=O)[C@H](CSSC2(C)C)NC1=O [Example 56] (cyclo(CSRS[tBuAla]PPI[Pen]IP[Dab]I); disulfide 1-9) : 5.96

* * *

Biological target: human MASP1 (Homo sapiens (Human))
Assay: Biochemical human MASP1 assay (FRET substrate)
Details: Average IC50; recombinant human MASP1; read-out: human MASP1 IC50
Where a SMILES comes first, the peptide text is derived from it. Bridges are numbered along the chain shown (N, C = ends). [ ]: non-standard residue; d: D form. tBuAla = CC(C)(C)C[C@H](N)C(=O)O; Pen = CC(C)(S)[C@H](N)C(=O)O; Abu = CC[C@H](N)C(=O)O; Ahx = NCCCCCC(=O)O
measured-quantity: pIC50
Entry type: numeric. Quantity: pIC50, the -log10 of concentration in molar units.

// sample CC[C@@H]1NC(=O)CCCCCNC(=O)[C@H](CC(=O)O)NC(=O)[C@@H]2CCCN2C(=O)[C@H]([C@@H](C)CC)NC(=O)[C@H]2NC(=O)[C@H]([C@@H](C)CC)NC(=O)[C@@H]3CCCN3C(=O)[C@@H]3CCCN3C(=O)[C@H](CC(C)(C)C)NC(=O)[C@H](CO)NC(=O)[C@H](CCCNC(=N)N)NC(=O)[C@H](CO)NC(=O)[C@H](CSSC2(C)C)NC(=O)[C@H]([C@@H](C)CC)NC1=O [Example 38] (cyclo([Abu]ICSRS[tBuAla]PPI[Pen]IPD[Ahx]); disulfide 3-11) , its pIC50 was 7.70

* * *

Catalogue of compounds with associated pIC50
Target: human MASP1 (Homo sapiens (Human), UniProt P48740)
Sequence (P48740 other isoform, or with tags, fused parts or gaps): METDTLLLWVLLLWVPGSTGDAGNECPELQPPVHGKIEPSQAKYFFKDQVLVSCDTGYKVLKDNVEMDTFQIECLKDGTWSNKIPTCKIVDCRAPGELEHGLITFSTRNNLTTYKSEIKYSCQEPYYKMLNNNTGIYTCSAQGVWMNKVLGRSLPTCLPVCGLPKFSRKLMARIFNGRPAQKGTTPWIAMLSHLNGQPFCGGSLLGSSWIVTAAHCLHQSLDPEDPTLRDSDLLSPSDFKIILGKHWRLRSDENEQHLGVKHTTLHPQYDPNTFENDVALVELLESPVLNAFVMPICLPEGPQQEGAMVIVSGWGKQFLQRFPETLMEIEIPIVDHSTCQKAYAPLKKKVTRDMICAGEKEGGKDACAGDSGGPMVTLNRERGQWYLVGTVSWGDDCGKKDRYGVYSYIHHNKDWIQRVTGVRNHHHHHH
Test: Biochemical human MASP1 assay (FRET substrate)
Settings: Average IC50; recombinant human MASP1; read-out: human MASP1 IC50
Where a SMILES comes first, the peptide text is derived from it. Bridges are numbered along the chain shown (N, C = ends). [ ]: non-standard residue; d: D form. tBuAla = CC(C)(C)C[C@H](N)C(=O)O; PEG4 = NCCOCCOCCOCCOCCC(=O)O; NMeC = CN[C@@H](CS)C(=O)O; Ahx = NCCCCCC(=O)O
Scale for pIC50: -log10 of concentration given in mol/L; no unit attached.

compound: CC[C@H](C)[C@@H]1NC(=O)CNC(=O)CCOCCOCCOCCOCCNC(=O)[C@H](CC(=O)O)NC(=O)[C@@H]2CCCN2C(=O)[C@H]([C@@H](C)CC)NC(=O)[C@@H]2CSSC[C@H](NC1=O)C(=O)N[C@@H](CO)C(=O)N[C@@H](CCCNC(=N)N)C(=O)N[C@@H](CO)C(=O)N[C@@H](CC(C)C)C(=O)N1CCC[C@H]1C(=O)N1CCC[C@H]1C(=O)N[C@@H]([C@@H](C)CC)C(=O)N2 [Example 14] (cyclo(CIPD[PEG4]GICSRSLPPI); disulfide 1-8)
endpoint-value: 6.77

# evaluate next
compound CC[C@H](C)[C@@H]1NC(=O)CNC(=O)CCCCCNC(=O)[C@H](CC(=O)O)NC(=O)[C@@H]2CCCN2C(=O)[C@H]([C@@H](C)CC)NC(=O)[C@@H]2CSSC[C@H](NC1=O)C(=O)N[C@@H](CO)C(=O)N[C@@H](CCCNC(=N)N)C(=O)N[C@@H](CO)C(=O)N[C@@H](CC(C)(C)C)C(=O)N1CCC[C@H]1C(=O)N1CCC[C@H]1C(=O)N[C@@H]([C@@H](C)CC)C(=O)N2C [Example 30] (cyclo([Ahx]GICSRS[tBuAla]PPI[NMeC]IPD); disulfide 4-12) , pIC50 observed: 7.80

* * *

Molecular target: human MASP1 (Homo sapiens (Human))
Assay: Biochemical human MASP1 assay (FRET substrate)
Details: Average IC50; recombinant human MASP1; read-out: human MASP1 IC50
Where a SMILES comes first, the peptide text is derived from it. Bridges are numbered along the chain shown (N, C = ends). [ ]: non-standard residue; d: D form. Oic = O=C(O)[C@@H]1C[C@@H]2CCCC[C@@H]2N1; tBuAla = CC(C)(C)C[C@H](N)C(=O)O; Pen = CC(C)(S)[C@H](N)C(=O)O; NMeC = CN[C@@H](CS)C(=O)O; Dap = NC[C@H](N)C(=O)O; PEG2 = NCCOCCOCCC(=O)O; Ahx = NCCCCCC(=O)O
measured-quantity: IC50 (nM)
Number in nM, nothing else.

compound: CC[C@H](C)[C@@H]1NC(=O)[C@H](C)NC(=O)CCCCCNC(=O)[C@H](CC(=O)O)NC(=O)[C@@H]2CCCN2C(=O)[C@H]([C@@H](C)CC)NC(=O)[C@@H]2CSSC[C@H](NC1=O)C(=O)N[C@@H](CO)C(=O)N[C@@H](CCCNC(=N)N)C(=O)N[C@@H](CO)C(=O)N[C@@H](CC(C)(C)C)C(=O)N1CCC[C@H]1C(=O)N1CCC[C@H]1C(=O)N[C@@H]([C@@H](C)CC)C(=O)N2C [Example 32] (cyclo(AICSRS[tBuAla]PPI[NMeC]IPD[Ahx]); disulfide 3-11)
measured-quantity: IC50
endpoint-value: 22

Query CC[C@H](C)[C@@H]1NC(=O)[C@@H](N)CNC(=O)[C@@H]2CCCN2C(=O)[C@H]([C@@H](C)CC)NC(=O)[C@H]2NC(=O)[C@H]([C@@H](C)CC)NC(=O)[C@@H]3C[C@@H]4CCCC[C@@H]4N3C(=O)[C@@H]3CCCN3C(=O)[C@H](CC(C)C)NC(=O)[C@H](CO)NC(=O)[C@H](CCCNC(=N)N)NC(=O)[C@H](CO)NC(=O)[C@H](CSSC2(C)C)NC1=O [Example 85] (H-[Dap]ICSRSLP[Oic]I[Pen]IP; lactam 1-C; disulfide 3-11) yields IC50 of 1000

CC[C@H](C)[C@@H]1NC(=O)CNC(=O)CCOCCOCCNC(=O)[C@H](CC(=O)O)NC(=O)[C@@H]2CCCN2C(=O)[C@H]([C@@H](C)CC)NC(=O)[C@@H]2CSSC[C@H](NC1=O)C(=O)N[C@@H](CO)C(=O)N[C@@H](CCCNC(=N)N)C(=O)N[C@@H](CO)C(=O)N[C@@H](CC(C)C)C(=O)N1CCC[C@H]1C(=O)N1CCC[C@H]1C(=O)N[C@@H]([C@@H](C)CC)C(=O)N2 [Example 24] (cyclo(CIPD[PEG2]GICSRSLPPI); disulfide 1-8) has a reported IC50 of 110

Lab book: IC50 of CC[C@H](C)[C@@H]1NC(=O)CNC(=O)CNC(=O)[C@@H](N)CNC(=O)[C@H](CC(=O)O)NC(=O)[C@@H]2CCCN2C(=O)[C@H]([C@@H](C)CC)NC(=O)[C@@H]2CSSC[C@H](NC1=O)C(=O)N[C@@H](CO)C(=O)N[C@@H](CCCNC(=N)N)C(=O)N[C@@H](CO)C(=O)N[C@@H](CC(C)C)C(=O)N1CCC[C@H]1C(=O)N1CCC[C@H]1C(=O)N[C@@H]([C@@H](C)CC)C(=O)N2 [Example 20] (H-[Dap]GGICSRSLPPICIPD; lactam 1-C; disulfide 5-13) noted as 55

The reported IC50 of the compound CC[C@H](C)[C@@H]1NC(=O)CNC(=O)CCCCCNC(=O)CC[C@@H](C(N)=O)NC(=O)[C@@H]2CCCN2C(=O)[C@H]([C@@H](C)CC)NC(=O)[C@H]2NC(=O)[C@H]([C@@H](C)CC)NC(=O)[C@@H]3C[C@@H]4CCCC[C@@H]4N3C(=O)[C@@H]3CCCN3C(=O)[C@H](CC(C)C)NC(=O)[C@H](CO)NC(=O)[C@H](CCCNC(=N)N)NC(=O)[C@H](CO)NC(=O)[C@H](CSSC2(C)C)NC1=O [Example 83] ([Ahx]GICSRSLP[Oic]I[Pen]IPE-NH2; disulfide 4-12; lactam N-15) was 18
